- EXPERIMENT SUMMARY: in vitro
- Design: species or system HB2, CCD841
- SETUP CONDITIONS: human, hek293 cells
OBSERVED PROPERTY: viability at 48 h, 10 µM (%)

# COMPOUND, OBSERVED PROPERTY, TEST RESULT
data = [
    ("O=C(CCl)N1CCOCC1C1CC1 (centres unmarked) [PCM-0102870]", "viability at 48 h, 10 µM", 56.7),
    ("C=CC(=O)N1CCCC(NC(=O)c2ccc(C(F)(F)F)cc2)C1 (centres unmarked) [PCM-0102607]", "viability at 48 h, 10 µM", 114),
    ("CCC1CN(C(=O)CCl)CCO1 (centres unmarked) [PCM-0102436]", "viability at 48 h, 10 µM", 71.4),
    ("Cc1cc(S(N)(=O)=O)cc(NC(=O)CCl)c1C [PCM-0102165]", "viability at 48 h, 10 µM", 8.3),
    ("O=C(CCl)NC(=O)c1ccccc1 [PCM-0102414]", "viability at 48 h, 10 µM", 91.5),
    ("N#CSc1ccc(NC(=O)CCl)c(Br)c1 [PCM-0102466]", "viability at 48 h, 10 µM", 48.4),
    ("CC(NC(=O)CCl)c1cccc(Cl)c1 (centres unmarked) [PCM-0102190]", "viability at 48 h, 10 µM", 49.3),
    ("C=CC(=O)Nc1ccc(N2CCCC2=O)cc1 [PCM-0102145]", "viability at 48 h, 10 µM", 91.4),
    ("C=CC(=O)Nc1ccccc1C(F)(F)F [PCM-0102581]", "viability at 48 h, 10 µM", 123),
    ("C=CC(=O)NC1CCN(C(=O)NCC)C1 (centres unmarked) [PCM-0103058]", "viability at 48 h, 10 µM", 109),
    ("O=C(CCl)Nc1ccc(-c2nnc3n2CCCCC3)cc1 [PCM-0102101]", "viability at 48 h, 10 µM", 17.5),
]

====

- ASSAYED TARGET: OTUB2 (OTUB2A) (Homo sapiens, UniProt Q96DC9)
- Construct: full length residues 1-234, E. coli BL21(DE3)-R3, His tag removed by TEV, construct 27312 Da
- Sequence (Q96DC9 whole entry, the tested form may be a part): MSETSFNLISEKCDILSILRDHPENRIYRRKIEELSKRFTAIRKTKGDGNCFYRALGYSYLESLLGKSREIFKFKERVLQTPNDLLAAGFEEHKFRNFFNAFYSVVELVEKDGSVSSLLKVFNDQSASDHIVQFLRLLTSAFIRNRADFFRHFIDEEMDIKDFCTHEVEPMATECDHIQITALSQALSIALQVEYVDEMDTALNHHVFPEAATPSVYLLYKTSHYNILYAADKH
- Design: Intact protein LC/MS covalent labelling, fragments in pools of five, 200 uM each, 4 °C
- SETUP CONDITIONS: 24 h, 4 °C, pool of five; 200 µM; covalent
Listing of recorded OTUB2 by entry.

# COMPOUND, OTUB2
rows = [
    ("N#Cc1c2c(n(-c3ccccc3)c1NC(=O)CCl)CCCC2", 0.08),
    ("Cc1ccc(S(N)(=O)=O)cc1NC(=O)CCl", 0.1),
    ("Cc1c(Cl)cnc(NC(=O)CCl)c1Cl", 0.2),
    ("CN(C(=O)CCl)c1nc2ccccc2s1", 0),
    ("Cc1sc(NC(=O)CCl)c(C#N)c1C", 0),
    ("O=C(CCl)Nc1cccc(-c2nnc3n2CCCCC3)c1", 0),
    ("Cl.O=C(CCl)N1CCN(Cc2ccc3c(c2)CCO3)CC1", 0),
    ("C=CC(=O)N1CCCC1c1cccc2c1OCCO2 (stereo not shown)", 0),
    ("C=CC(=O)N1CCC(NC(=O)OC(C)(C)C)CC1", 0),
    ("O=C(CCl)N1CCN(S(=O)(=O)c2ccc(Cl)cc2)CC1", 0),
    ("Cc1c(C#N)c(NC(=O)CCl)n(-c2cccc(F)c2)c1C", 0.1),
    ("C=CC(=O)Nc1cc(F)cc(F)c1", 0),
    ("CC(=O)Nc1ccc(NC(=O)CCl)cc1", 0),
]
